Measured shrunken log2 fold change values are reported for all entries that follow.
- System: Escherichia coli TOP10;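 also: peptides expressed intracellularly from a pBAD plasmid library in pooled LB shake-flask culture, induced with 0.3% L-arabinose, DNA abundance read by NGS, three biological replicates, DESeq2 with apeglm shrinkage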
- assay remarks: shrunken log2 fold change of peptide-encoding DNA abundance (4.5 h post-induction vs induction); higher = less antimicrobial activity (less host growth inhibition)
- setup conditions: time post-induction: 4.5 h; library: site-saturation at positions 5, 18, 19, 20
parameter: shrunken log2 fold change

INSERT INTO results (item_sequence, readout_value) VALUES
  ('RRIRSRPPRLPRPRPRPAQAPRP', 0.15),
  ('RRIRMRPPRLPRPRPRPSKFPRP', -0.0303),
  ('RRIRGRPPRLPRPRPRPNQTPRP', -0.0961),
  ('RRIRNRPPRLPRPRPRPQTEPRP', -0.219),
  ('RRIRQRPPRLPRPRPRPLIVPRP', -0.149),
  ('RRIRARPPRLPRPRPRPPESPRP', 1.02),
  ('RRIRVRPPRLPRPRPRPTHNPRP', 0.0759),
  ('RRIRNRPPRLPRPRPRPESTPRP', -0.0329),
  ('RRIRARPPRLPRPRPRPMVWPRP', 1.07),
  ('RRIRFRPPRLPRPRPRPEDYPRP', 0.0145);
